Biological target: smooth muscle myosin S2 peptide (MYH11) (Homo sapiens, UniProt P35749)
Construct: A 21 residue peptide of the S2 region of MYH11 was matched to the previously synthesized S2 peptide; host or cells: chemical synthesis
Experiment: FRET of smooth muscle myosin S2 peptide dimer with anti-S2 peptides
Type: binding
Details: control, no anti-S2 peptide; read-out: Dissociation Constant (Kd) of S2 peptide dimer
measured_property: Kd (nM)
Report the value in nM with no unit label.

Qu. So what's the measured Kd for this one? H-EMEARLEEEEDRGQQLQAERK-OH [Smooth Myosin S2, reference compound]
Ans. 302

Data provenance is patent US12617818B2.
